# System: p44 (in p44/p62 complex);p62 (in p44/p62 complex) (Chaetomium thermophilum;Chaetomium thermophilum)
# assay.protocol: fluorescence anisotropy
# condition.label: 20 mM HEPES pH 7.5, 30 mM KCl, 5 mM MgCl2, 1 mM TCEP, 5 nM DNA, room temperature
property: pKd
Give bare numbers, as −log10 of the molar value.

Example sequences with recorded pKd:
1) TTTTTTTTTTTTTTTCCCGGCCATGCGAAGCATGGCCGGGTTTTT [open fork hairpin]	6.68
2) GACTACGTACTGTTACGGCTCCATCTCTACCGCAATCAGGCCAGATCTGC [undamaged ssDNA 50 nt]	6.08

Then there is this sequence:
Q: Look up pKd for this sequence: GACTACGTACTGTTACGGCTCCATCTCTACCGCAATCAGGCCAGATCTGC / GCAGATCTGGCCTGATTGCGGTAGCGATGGAGCCGTAACAGTACGTAGTC [undamaged dsDNA 50 bp]
Result: 5.93
